Data credit: patent USRE34165E

So I've got a bunch of compounds here, and I need their Concentration of c-GMP Produced values.
# Test system: cell membrane receptor of the intact CEM cell
# procedure text: Cyclic-GMP assay: induction of cyclic-GMP production in intact CEM cells
# Type: cell-based, human
# condition set: Concentration of Peptide 10^0 μg/ml, 4-5 min at 37° C.
Residues, ends and D or L forms follow the SMILES beside them.
Write down the numeric answer in picomoles/ml and omit the unit.

Ask | I'd like to know its Concentration of c-GMP Produced. The compound in question is CC(=O)N[C@@H](CCCNC(=N)N)C(=O)N1CCC[C@H]1C(=O)N[C@@H](CC(=O)O)C(=O)N[C@H](C(=O)N[C@@H](Cc1ccccc1)C(=O)O)C(C)C [α-acetyl-ARG--PRO--ASP--VAL--PHE--OH] (Ac-RPDVF-OH)
Reply | 7

Ask | Also check CC(C)[C@H](NC(=O)[C@H](CC(=O)O)NC(=O)[C@@H]1CCCN1C(=O)[C@@H](N)CCCNC(=N)N)C(=O)N[C@@H](Cc1ccccc1)C(=O)O [H--ARG--PRO--ASP--VAL--PHE--OH] (H-RPDVF-OH)
Reply | 0

Ask | Also check CC(C)[C@H](NC(=O)[C@H](CC(=O)O)NC(=O)[C@H](CCCCN)NC(=O)[C@@H](N)CCCNC(=N)N)C(=O)N[C@@H](Cc1c[nH]cn1)C(=O)O [H--ARG--LYS--ASP--VAL--HIS--OH, Arginyl-Lysyl-Aspartyl-Valyl-Histidine] (H-RKDVH-OH)
Reply | 0

Ask | Also check CC(C)[C@H](NC(=O)[C@H](CC(=O)O)NC(=O)[C@H](CCCCN)NC(=O)[C@@H](N)CCCN=C(N)N)C(=O)N[C@@H](Cc1ccc(O)cc1)C(=O)O [TP-5, thymopentin] (H-RKDVY-OH)
Reply | 0

Ask | Also check CC(C)[C@H](NC(=O)[C@H](CC(=O)O)NC(=O)[C@H](CCCCN)NC(=O)[C@@H](N)CCCNC(=N)N)C(=O)N[C@@H](Cc1ccccc1)C(=O)O [H--ARG--LYS--ASP--VAL--PHE--OH] (H-RKDVF-OH)
Reply | 6

====

# System: isolated thymopoietin cell surface receptor protein from CEM cells
# condition set: at equivalent concentrations; with thymopoietin 37-45 nonapeptide; 12 h incubation
Residues, ends and D or L forms follow the SMILES beside them.
readout: Displacement of 125I-TP relative to that caused by thymopoietin self-displacement

{"compound": "CC(C)[C@H](NC(=O)[C@H](CC(=O)O)NC(=O)[C@H](CCCCN)NC(=O)[C@@H](N)CCCNC(=N)N)C(=O)N[C@@H](Cc1ccccc1)C(=O)O [H--ARG--LYS--ASP--VAL--PHE--OH] (H-RKDVF-OH)", "val": "at least 50%"}
{"compound": "CC(C)[C@H](NC(=O)[C@H](CC(=O)O)NC(=O)[C@H](CCCCN)NC(=O)[C@@H](N)CCCNC(=N)N)C(=O)N[C@@H](Cc1c[nH]c2ccccc12)C(=O)O [H-ARG-LYS-ASP-VAL-TRP-OH, Arginyl-Lysyl-Aspartyl-Valyl-Tryptophan] (H-RKDVW-OH)", "val": "at least 50%"}
{"compound": "CC(C)[C@H](NC(=O)[C@H](CC(=O)O)NC(=O)[C@H](CCCCN)NC(=O)[C@@H](N)CCCNC(=N)N)C(=O)N[C@@H](Cc1c[nH]cn1)C(=O)O [H--ARG--LYS--ASP--VAL--HIS--OH, Arginyl-Lysyl-Aspartyl-Valyl-Histidine] (H-RKDVH-OH)", "val": "at least 50%"}
{"compound": "CC(C)[C@H](NC(=O)[C@H](CC(=O)O)NC(=O)[C@@H]1CCCN1C(=O)[C@@H](N)CCCNC(=N)N)C(=O)N[C@@H](Cc1ccccc1)C(=O)O [H--ARG--PRO--ASP--VAL--PHE--OH] (H-RPDVF-OH)", "val": "at least 50%"}

Alright, here's another compound for you.
Ask | Give isolated thymopoietin cell surface receptor protein from CEM cells Displacement of 125I-TP relative to that caused by thymopoietin self-displacement for CC(C)[C@H](NC(=O)[C@H](CC(=O)O)NC(=O)[C@H](CCCCN)NC(=O)[C@@H](N)CCCNC(=N)N)C(=O)N[C@@H](Cc1c[nH]c2ccccc12)C(N)=O [H-ARG-LYS-ASP-VAL-TRP-NH2] (H-RKDVW-NH2)
Reply | at least 50%
